meta.source: the supplement of paper PMC3334620

Here, each record is paired with measured PBM E-score data.
- measured on: Abf1 (UniProt P14164)
- Sequence: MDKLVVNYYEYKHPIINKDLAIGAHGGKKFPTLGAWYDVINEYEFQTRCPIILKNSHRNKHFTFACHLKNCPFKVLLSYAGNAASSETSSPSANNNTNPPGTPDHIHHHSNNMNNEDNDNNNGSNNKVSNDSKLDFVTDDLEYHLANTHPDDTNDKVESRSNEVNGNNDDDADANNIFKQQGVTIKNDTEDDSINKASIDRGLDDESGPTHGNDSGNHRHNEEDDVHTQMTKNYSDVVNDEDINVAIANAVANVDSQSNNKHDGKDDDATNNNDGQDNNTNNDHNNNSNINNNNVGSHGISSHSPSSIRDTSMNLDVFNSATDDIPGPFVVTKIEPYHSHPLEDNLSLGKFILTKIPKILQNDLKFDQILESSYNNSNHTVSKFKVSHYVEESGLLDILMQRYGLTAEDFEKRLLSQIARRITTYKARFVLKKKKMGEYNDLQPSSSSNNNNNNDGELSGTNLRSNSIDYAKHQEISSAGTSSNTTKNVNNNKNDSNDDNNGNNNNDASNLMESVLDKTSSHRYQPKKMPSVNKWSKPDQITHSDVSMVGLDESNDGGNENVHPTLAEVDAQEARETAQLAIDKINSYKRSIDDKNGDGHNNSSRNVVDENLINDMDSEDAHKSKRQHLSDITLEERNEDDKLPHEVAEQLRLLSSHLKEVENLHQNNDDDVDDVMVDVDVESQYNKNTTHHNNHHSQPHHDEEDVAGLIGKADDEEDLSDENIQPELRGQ
- experiment description: PBM E-score (8-mer binding enrichment) (E-score (-0.5 to 0.5)); higher = stronger / more preferred TF binding
- experimental parameters: protein concentration: 200 nM; construct: GST-full length
The full ranking holds about 33,000 sequences; the median of “E-score (-0.5 to 0.5)” is about -0.015, and the highest 2% start at about 0.3. Many of the other results were omitted from the sample, so the highest values are more common in it than they were.
property measured: PBM E-score

{"columns": ["ordered residues", "measured on", "property measured", "result"],
 "data": [
  ["AACTCCTG", "Abf1 (UniProt P14164)", "PBM E-score", -0.177],
  ["AGTCATGA", "Abf1 (UniProt P14164)", "PBM E-score", 0.149],
  ["GAGATCGC", "Abf1 (UniProt P14164)", "PBM E-score", 0.164],
  ["AATTAATA", "Abf1 (UniProt P14164)", "PBM E-score", 0.302],
  ["AGGATCTC", "Abf1 (UniProt P14164)", "PBM E-score", -0.0704],
  ["ATCCACGA", "Abf1 (UniProt P14164)", "PBM E-score", 0.199],
  ["CTTTATCA", "Abf1 (UniProt P14164)", "PBM E-score", 0.313],
  ["ACGACCAG", "Abf1 (UniProt P14164)", "PBM E-score", 0.301],
  ["CCTGTCAC", "Abf1 (UniProt P14164)", "PBM E-score", 0.149],
  ["CGCGGGAC", "Abf1 (UniProt P14164)", "PBM E-score", -0.172],
  ["CTTGTCAC", "Abf1 (UniProt P14164)", "PBM E-score", 0.357],
  ["GATCCTAA", "Abf1 (UniProt P14164)", "PBM E-score", 0.0497],
  ["ATCTTATG", "Abf1 (UniProt P14164)", "PBM E-score", 0.0695],
  ["GTATACGA", "Abf1 (UniProt P14164)", "PBM E-score", 0.242],
  ["AGGTATGC", "Abf1 (UniProt P14164)", "PBM E-score", 0.0905],
  ["GCTATCCA", "Abf1 (UniProt P14164)", "PBM E-score", 0.00713],
  ["AATTACGA", "Abf1 (UniProt P14164)", "PBM E-score", 0.186],
  ["AATGTCGT", "Abf1 (UniProt P14164)", "PBM E-score", 0.302],
  ["ATCACGGC", "Abf1 (UniProt P14164)", "PBM E-score", 0.35],
  ["CATGTCAC", "Abf1 (UniProt P14164)", "PBM E-score", 0.383],
  ["CGTCGTCA", "Abf1 (UniProt P14164)", "PBM E-score", 0.24],
  ["ACGAAGTA", "Abf1 (UniProt P14164)", "PBM E-score", 0.169],
  ["CGTACATC", "Abf1 (UniProt P14164)", "PBM E-score", 0.134],
  ["TGACGACA", "Abf1 (UniProt P14164)", "PBM E-score", 0.361],
  ["ATTTATTA", "Abf1 (UniProt P14164)", "PBM E-score", 0.309],
  ["CATTCGCC", "Abf1 (UniProt P14164)", "PBM E-score", 0.0362],
  ["CGGATGAA", "Abf1 (UniProt P14164)", "PBM E-score", 0.211],
  ["AATGTCGA", "Abf1 (UniProt P14164)", "PBM E-score", 0.146],
  ["CCTGACAG", "Abf1 (UniProt P14164)", "PBM E-score", -0.0556],
  ["AAGAAAAA", "Abf1 (UniProt P14164)", "PBM E-score", -0.0775],
  ["CGTACATA", "Abf1 (UniProt P14164)", "PBM E-score", 0.364],
  ["AGTGACAA", "Abf1 (UniProt P14164)", "PBM E-score", 0.439],
  ["GCACCCTA", "Abf1 (UniProt P14164)", "PBM E-score", -0.149],
  ["TAAATGCA", "Abf1 (UniProt P14164)", "PBM E-score", 0.0499],
  ["ACTGTCAT", "Abf1 (UniProt P14164)", "PBM E-score", 0.0825],
  ["ATATACGG", "Abf1 (UniProt P14164)", "PBM E-score", 0.339],
  ["AGTACAAA", "Abf1 (UniProt P14164)", "PBM E-score", 0.101],
  ["TGATAACA", "Abf1 (UniProt P14164)", "PBM E-score", 0.341],
  ["GCTGTCAC", "Abf1 (UniProt P14164)", "PBM E-score", 0.197],
  ["CGATAACA", "Abf1 (UniProt P14164)", "PBM E-score", 0.106],
  ["AGTACATA", "Abf1 (UniProt P14164)", "PBM E-score", 0.0814],
  ["CATGTCAG", "Abf1 (UniProt P14164)", "PBM E-score", 0.0449],
  ["GCGACTAC", "Abf1 (UniProt P14164)", "PBM E-score", -0.134],
  ["AGTGACCG", "Abf1 (UniProt P14164)", "PBM E-score", 0.125],
  ["GAGTTGTA", "Abf1 (UniProt P14164)", "PBM E-score", 0.0502],
  ["GCTTACGA", "Abf1 (UniProt P14164)", "PBM E-score", -0.071],
  ["AATGTCGG", "Abf1 (UniProt P14164)", "PBM E-score", -0.0313],
  ["TGATAAAA", "Abf1 (UniProt P14164)", "PBM E-score", 0.337],
  ["ACGACTAT", "Abf1 (UniProt P14164)", "PBM E-score", 0.298],
  ["CGTTATCA", "Abf1 (UniProt P14164)", "PBM E-score", 0.205],
  ["CGTACAAA", "Abf1 (UniProt P14164)", "PBM E-score", 0.408],
  ["TCATGAAA", "Abf1 (UniProt P14164)", "PBM E-score", 0.00026],
  ["CACTAATA", "Abf1 (UniProt P14164)", "PBM E-score", 0.255],
  ["AGTGACAG", "Abf1 (UniProt P14164)", "PBM E-score", 0.292],
  ["ATTATTTA", "Abf1 (UniProt P14164)", "PBM E-score", 0.254],
  ["AGACGACC", "Abf1 (UniProt P14164)", "PBM E-score", 0.0722],
  ["GATGTCAC", "Abf1 (UniProt P14164)", "PBM E-score", 0.395],
  ["ACGAAGTG", "Abf1 (UniProt P14164)", "PBM E-score", 0.301],
  ["ATTTATCG", "Abf1 (UniProt P14164)", "PBM E-score", 0.222],
  ["ACTTACGC", "Abf1 (UniProt P14164)", "PBM E-score", -0.0756],
  ["CTTGTCAA", "Abf1 (UniProt P14164)", "PBM E-score", 0.0838],
  ["CATGACAG", "Abf1 (UniProt P14164)", "PBM E-score", 0.0583],
  ["CTCACGTC", "Abf1 (UniProt P14164)", "PBM E-score", 0.0288],
  ["AGACGACA", "Abf1 (UniProt P14164)", "PBM E-score", 0.264],
  ["TCACGACA", "Abf1 (UniProt P14164)", "PBM E-score", 0.257],
  ["ATCACGCA", "Abf1 (UniProt P14164)", "PBM E-score", 0.272],
  ["TCCCGAAA", "Abf1 (UniProt P14164)", "PBM E-score", 0.0516],
  ["CATTACGA", "Abf1 (UniProt P14164)", "PBM E-score", 0.128],
  ["CACGAACC", "Abf1 (UniProt P14164)", "PBM E-score", 0.185],
  ["AATTAATT", "Abf1 (UniProt P14164)", "PBM E-score", 0.00666],
  ["AGTGTCAT", "Abf1 (UniProt P14164)", "PBM E-score", 0.21],
  ["ATCACGCC", "Abf1 (UniProt P14164)", "PBM E-score", 0.253],
  ["TACTAATA", "Abf1 (UniProt P14164)", "PBM E-score", 0.0826],
  ["ATCACGTC", "Abf1 (UniProt P14164)", "PBM E-score", 0.336],
  ["ATAAACGG", "Abf1 (UniProt P14164)", "PBM E-score", 0.273],
  ["TATTAATA", "Abf1 (UniProt P14164)", "PBM E-score", 0.00602],
  ["CGTACACA", "Abf1 (UniProt P14164)", "PBM E-score", 0.318],
  ["ATTGCACA", "Abf1 (UniProt P14164)", "PBM E-score", 0.0349],
  ["GGTACAGA", "Abf1 (UniProt P14164)", "PBM E-score", 0.00644],
  ["GAGATCAC", "Abf1 (UniProt P14164)", "PBM E-score", 0.347],
  ["GCTTATCA", "Abf1 (UniProt P14164)", "PBM E-score", 0.0367],
  ["AGCGAGAT", "Abf1 (UniProt P14164)", "PBM E-score", 0.0588],
  ["ACTTACGA", "Abf1 (UniProt P14164)", "PBM E-score", 0.325],
  ["CGACCTCA", "Abf1 (UniProt P14164)", "PBM E-score", 0.00561],
  ["GGGGGCCA", "Abf1 (UniProt P14164)", "PBM E-score", -0.462],
  ["GTTTATTA", "Abf1 (UniProt P14164)", "PBM E-score", 0.0803],
  ["TCAAACAA", "Abf1 (UniProt P14164)", "PBM E-score", -0.127],
  ["ATTGTCAG", "Abf1 (UniProt P14164)", "PBM E-score", 0.141],
  ["ATTTATCC", "Abf1 (UniProt P14164)", "PBM E-score", 0.317],
  ["ATCACGAC", "Abf1 (UniProt P14164)", "PBM E-score", 0.363],
  ["ATCCACGG", "Abf1 (UniProt P14164)", "PBM E-score", 0.316]
]}
